Origin of measurements: patent US20250152746A1

test system: PCSK9 gene splice site; format: cell-based, human
TEST_READOUT: Human Primary Hepatocytes-splice site editing % 2500 ng/mL (%)
Response body: numeric value in %, unit text excluded.

Reference set, count: 3
query: What does the record list as Human Primary Hepatocytes-splice site editing % 2500 ng/mL for GA075: PCSK9 gRNA for ABE8.8 splice site editing, Human/Cyno (nucleic acid, listed as RNA; modified_base 1: mod_base = OTHER; note = 2'-O-Methyl-uridine phosphorothioate; modified_base 2: mod_base = OTHER; modified_base, PCSK9 gRNA for ABE8.8 splice site editing, Human/Cyno) guide: TTGGAAAGACGGAGGCAGCCGTTTTAGAGCTAGAAATAGCAAGTTAAAATAAGGCTAGTCCGTTATCAACTTGAAAAAGTGGCACCGAGTCGGTGCTTTT ?
result: 3.1

query: What does the record list as Human Primary Hepatocytes-splice site editing % 2500 ng/mL for GA076: PCSK9 gRNA for ABE8.8 splice site editing, Human/Cyno (nucleic acid, 2'-O-methyl at 1, 2, other sugars, backbone and T or U not given here; further chemistry not fully specified, PCSK9 gRNA for ABE8.8 splice site editing, Human/Cyno) guide: GAAAGACGGAGGCAGCCTGGGTTTTAGAGCTAGAAATAGCAAGTTAAAATAAGGCTAGTCCGTTATCAACTTGAAAAAGTGGCACCGAGTCGGTGCTTTT ?
result: 3.9

query: What does the record list as Human Primary Hepatocytes-splice site editing % 2500 ng/mL for GA073: PCSK9 gRNA; protospacer GCTTACCTGTCTGTGGAAGC (SEQ ID NO: 67), splice donor of intron 4 (nucleic acid, listed as RNA; modified_base 1: mod_base = OTHER; note = 2'-O-Methyl-guanosine phosphorothioate; modified_base 2: mod_base = OTHER; note = 2'-O-Methyl-cytidine phosphorothioate; modified_b) guide: GCTTACCTGTCTGTGGAAGCGTTTTAGAGCTAGAAATAGCAAGTTAAAATAAGGCTAGTCCGTTATCAACTTGAAAAAGTGGCACCGAGTCGGTGCTTTT ?
result: 17.5

# evaluate next
query: What does the record list as Human Primary Hepatocytes-splice site editing % 2500 ng/mL for GA086: PCSK9 gRNA for ABE8.8 splice site editing, Human/Cyno (nucleic acid, listed as RNA; modified_base 1: mod_base = OTHER; note = 2'-O-Methyl-uridine phosphorothioate; modified_base 2: mod_base = OTHER; modified_base, PCSK9 gRNA for ABE8.8 splice site editing, Human/Cyno) guide: TTCACCTGCTCCTGAGGGGCGTTTTAGAGCTAGAAATAGCAAGTTAAAATAAGGCTAGTCCGTTATCAACTTGAAAAAGTGGCACCGAGTCGGTGCTTTT ?
result: 4.9
